biological target: HIF-2α HIS TAG-PASB Domain (Homo sapiens); construct: 100 nM HIF-2α HIS TAG-PASB Domain; experiment: HIF-2α Scintillation Proximity Assay (SPA); type: binding; conditions: read-out: Scintillation Proximity Assay IC50
Sequence (Q99814 240-350 limits assumed): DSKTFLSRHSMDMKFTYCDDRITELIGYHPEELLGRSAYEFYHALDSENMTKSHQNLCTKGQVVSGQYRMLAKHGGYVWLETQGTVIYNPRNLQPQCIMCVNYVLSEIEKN

- COMPOUND: "Cc1ccc(Cl)cc1Oc1ccc(S(=O)(=O)C(F)(F)F)cc1Br"
  IC50: "> 1000 nM"
- COMPOUND: "N=S1(=O)CC(O)c2c1ccc(Oc1cc(F)cc(F)c1)c2C(F)F (centres unmarked)"
  IC50: "> 1000 nM"
- COMPOUND: "CS(=O)(=O)c1ccc(Oc2cc(F)cc(C#N)c2)c2c1C(=O)C(F)(Cl)C2 (centres unmarked)"
  IC50: "250 to 1000 nM"
- COMPOUND: "O=S(=O)(c1ccc(OCC(F)(F)F)c2c1[C@H](O)C(F)(F)C2)C(F)(F)F"
  IC50: "< 50 nM"
- COMPOUND: "CS(=O)(=O)c1ccc(Oc2cc(F)cc(F)c2)c2c1[C@H](O)C(F)(F)C2"
  IC50: "< 50 nM"
- COMPOUND: "O=S(=O)(c1ccc([C@H]2CCC[C@@H](O)C2)c2c1[C@H](O)C(F)(F)C2)C(F)(F)F"
  IC50: "< 50 nM"
- COMPOUND: "CS(=O)(=O)c1ccc(C(F)(F)CO)c2c1C(O)CC2 (centres unmarked)"
  IC50: "50 to 249 nM"
- COMPOUND: "CC1(C)C=C(c2ccc(S(=O)(=O)C(F)(F)F)c3c2CC(F)(F)[C@H]3O)C(O)CC1 (some centres unmarked)"
  IC50: "> 1000 nM"

FYI, the data here is from patent US10278942B2.
